Ref: ChEMBL document CHEMBL3988442

Percent Effect overview
# Test system: Wolbachia pipientis
# measurement-description: Anti-Wolbachia Cell-Based Screen
# Type: functional
# Parameters: scale not given: in the data most compounds retested in dose-response had high values
# details: 5 µM
In all, about 48,000 compounds went through this assay and about 13,000 (27%) showed an effect of 50% or more. This is one part of the list.

compound-structure-string: Cc1[nH]ccc1C(=O)N1CCC(c2nnc(Cn3ccnc3)n2C)CC1
Percent Effect (%): 6.251

compound-structure-string: COc1ccc(-n2cnc(Cl)c2CO)cc1
Percent Effect (%): 99.78

compound-structure-string: Cn1cccc1C(=O)N1CCC(c2nnc(Cn3ccnc3)n2C)CC1
Percent Effect (%): 89.43

compound-structure-string: COc1ccc(OCC(=O)n2nc(C)c(C)c2C)cc1
Percent Effect (%): 7.668

compound-structure-string: COC(=O)CSc1nnc2[nH]c(=O)c3c(n12)CCCC3
Percent Effect (%): -5.705

compound-structure-string: Cc1nc2c(c(NC3CC3)n1)CCN(C(=O)C1(C#N)CC1)CC2
Percent Effect (%): -9.329

compound-structure-string: CCCc1cc(=O)[nH]c2nnc(SCC(N)=O)n12
Percent Effect (%): 23.5

compound-structure-string: CS(=O)(=O)NCCNC(=O)c1ccc(OCc2ccccc2)nc1
Percent Effect (%): 7.359

compound-structure-string: Cn1c(Cn2ccnc2)nnc1C1CCN(C(=O)c2ccncc2)CC1
Percent Effect (%): 74.15

compound-structure-string: CCn1c(SCC(N)=O)nnc1-c1csc2c1CCCC2
Percent Effect (%): 115.1

compound-structure-string: Cn1c(Cn2ccnc2)nnc1C1CCN(Cc2cccnc2N)CC1
Percent Effect (%): -5.827

compound-structure-string: Cn1cccc1C(=O)N1CCC(c2nccn2Cc2ccncc2)CC1
Percent Effect (%): 14.15

compound-structure-string: O=C(c1cncs1)N1CCc2[nH]nc(Nc3ccccc3)c2C1
Percent Effect (%): 117.5

compound-structure-string: CN(CCO)Cc1nnc(C2CCN(C(=O)c3ccccc3)CC2)n1C
Percent Effect (%): 8.451

compound-structure-string: CC(C)(C)OC(=O)NC(C)(C)c1noc(Cn2ccnc2)n1
Percent Effect (%): 11.22

compound-structure-string: CCCNC(=O)CSc1nnc2[nH]c(=O)c3c(n12)CCCC3
Percent Effect (%): 1.807

====

Percent Effect overview
# Tested on: Wolbachia pipientis
# measurement-description: Anti-Wolbachia Cell-Based Screen
# Assay type: functional
# Parameters: scale not given: in the data most compounds retested in dose-response had high values
# details: 5 µM
In all, about 48,000 compounds went through this assay and about 13,000 (27%) showed an effect of 50% or more. The list shows a part of the results.

molecule: CN1C(=O)CCCC12CCCN(C(=O)c1ccoc1)C2 (stereo unspecified)
result-units: %
Percent Effect: 102.5
--
molecule: CO[C@@H]1CO[C@@]2(CCCN(C(=O)N3CCCC3)C2)C1
result-units: %
Percent Effect: 89.36
--
molecule: CC(C)c1ccc(C(CN)N2CCc3sccc3C2)cc1 (stereo unspecified)
result-units: %
Percent Effect: 134.3
--
molecule: CO[C@H]1CO[C@@]2(CCCN(C(=O)N3CCCC3)C2)C1
result-units: %
Percent Effect: 89.24
--
molecule: CC(C(=O)N1CCc2sccc2C1)N1CCC(S(N)(=O)=O)CC1 (stereo unspecified)
result-units: %
Percent Effect: 4.951
--
molecule: CO[C@H]1CO[C@@]2(CCCN(C(=O)N(C)C)C2)C1
result-units: %
Percent Effect: 112.3
